meta.source: patent US20200255436A1

EXPERIMENTAL_DETAILS: Study 1: single escalating oral dose pharmacokinetics, fed and fasted
Format: in vivo, human
ASSAY_CONTEXT: human, plasma, po, 800 mg, 800 mg single oral dose, fed; median; read-out: Tmax
OUTCOME_MEASURE: Tmax (h)
Numeric answer only, unit h assumed.

Prompt: Please report Tmax for the following molecule: CCC(CC)c1cc(C)nc2c(-c3sc(N4CCOCC4)nc3Cl)c(C)nn12 [Compound 1]
Completion: 6

---

EXPERIMENTAL_DETAILS: Study 2 Part A: multiple-dose (14 days) pharmacokinetics
Type: in vivo, human
ASSAY_CONTEXT: human, plasma, po; 200 mg daily, Day 14; half-life calculated by accumulation ratio; read-out: Effective t1/2 (converted)
OUTCOME_MEASURE: half-life (h)
Note: unit h is implicit; provide only the numeric part.

Prompt: Item `CCC(CC)c1cc(C)nc2c(-c3sc(N4CCOCC4)nc3Cl)c(C)nn12` : provide half-life
Completion: 52

---

EXPERIMENTAL_DETAILS: Study 2 Part A: multiple-dose (14 days) pharmacokinetics
Format: in vivo, human
ASSAY_CONTEXT: human, plasma, po; 150 mg daily, Day 14; half-life calculated by accumulation ratio; read-out: Effective t1/2 (converted)
OUTCOME_MEASURE: half-life (h)
Give just the numeric value; h need not be written.

Prompt: Write down half-life measured for item `CCC(CC)c1cc(C)nc2c(-c3sc(N4CCOCC4)nc3Cl)c(C)nn12`
Completion: 32.7

---

EXPERIMENTAL_DETAILS: Study 2 Part A: multiple-dose (14 days) pharmacokinetics
Assay type: in vivo, human
ASSAY_CONTEXT: human, plasma, oral, 50 mg, Day 1; median
OUTCOME_MEASURE: Tmax (h)
Numbers only; they are read as h.

Prompt: Look up and report measured Tmax for this entry: CCC(CC)c1cc(C)nc2c(-c3sc(N4CCOCC4)nc3Cl)c(C)nn12 [Compound 1]
Completion: 4.52

---

EXPERIMENTAL_DETAILS: Solubility in different aqueous media
Format: physicochemical
ASSAY_CONTEXT: aqueous buffer, thermodynamic from solid; 0.001N HCl, equilibrium pH 3.36, 24 hours at room temperature
OUTCOME_MEASURE: solubility at 24 h

Prompt: Note solubility at 24 h for the compound shown: CCC(CC)c1cc(C)nc2c(-c3sc(N4CCOCC4)nc3Cl)c(C)nn12 [Compound 1]
Completion: 0.3 µg/mL

---

EXPERIMENTAL_DETAILS: Study 2 Part A: multiple-dose (14 days) pharmacokinetics
Assay type: in vivo, human
ASSAY_CONTEXT: human, plasma, oral, 200 mg, 200 mg daily, Day 14; median
OUTCOME_MEASURE: Tmax (h)
Give your result in h as a bare value.

Prompt: Return the recorded Tmax value; entry: `CCC(CC)c1cc(C)nc2c(-c3sc(N4CCOCC4)nc3Cl)c(C)nn12`
Completion: 5

---

EXPERIMENTAL_DETAILS: Study 1: single escalating oral dose pharmacokinetics, fed and fasted
Type: in vivo, human
ASSAY_CONTEXT: human, plasma, po, 400 mg, 400 mg single oral dose, fed; median; read-out: Tmax
OUTCOME_MEASURE: Tmax (h)
Kindly answer with a numeric value in h, unit omitted.

Prompt: Determine its reported Tmax: `CCC(CC)c1cc(C)nc2c(-c3sc(N4CCOCC4)nc3Cl)c(C)nn12`
Completion: 4

---

EXPERIMENTAL_DETAILS: Study 1: single escalating oral dose pharmacokinetics, fed and fasted
Format: in vivo, human
ASSAY_CONTEXT: human, plasma, po, 150 mg, 150 mg single oral dose, fasted; geometric mean; read-out: AUC0-tlast
Experimental: Study 1 was the first-in-human study that investigated the safety, tolerability, and PK of single-escalating doses of Compound 1, given orally, to healthy adult subjects. […] The data from this study were used for the selection of doses for Study 2. […] PK parameters AUC0-∞ and Cmax were analyzed separately for dose proportionality for Compound 1 from 50 to 800 mg when administered in the fed state. […]
OUTCOME_MEASURE: AUC(0-t)
Please give the number followed by its unit.

Prompt: Name the recorded AUC(0-t) of the item CCC(CC)c1cc(C)nc2c(-c3sc(N4CCOCC4)nc3Cl)c(C)nn12 [Compound 1] in your answer.
Completion: 288 ng·h/mL

---

EXPERIMENTAL_DETAILS: Study 2 Part A: multiple-dose (14 days) pharmacokinetics
Assay type: in vivo, human
ASSAY_CONTEXT: human, plasma, oral; 50 mg daily, Day 14; geometric mean
OUTCOME_MEASURE: AUC(0-inf) (ng·h/mL)
Give just the number in ng·h/mL; leave the unit off.

Prompt: Return value of AUC(0-inf) for input `CCC(CC)c1cc(C)nc2c(-c3sc(N4CCOCC4)nc3Cl)c(C)nn12` , no commentary.
Completion: 980

---

EXPERIMENTAL_DETAILS: Study 2 Part A: multiple-dose (14 days) pharmacokinetics
Assay type: in vivo, human
ASSAY_CONTEXT: human, plasma, oral, 50 mg, 50 mg daily, Day 14; geometric mean; read-out: Vss/F
OUTCOME_MEASURE: Vd/F at 14 days (L)
Form entry: value (L) — number only.

Prompt: Report measured Vd/F at 14 days; entry is `CCC(CC)c1cc(C)nc2c(-c3sc(N4CCOCC4)nc3Cl)c(C)nn12`
Completion: 12900

---

EXPERIMENTAL_DETAILS: Study 2 Part A: multiple-dose (14 days) pharmacokinetics
Format: in vivo, human
ASSAY_CONTEXT: human, plasma, oral, 200 mg, 200 mg daily, Day 14; weight normalized; read-out: WT-norm Vss/F
OUTCOME_MEASURE: Vd/F at 14 days (L/kg)
Give the quantity in L/kg, number only.

Prompt: Hello, please tell me recorded Vd/F at 14 days for this one: CCC(CC)c1cc(C)nc2c(-c3sc(N4CCOCC4)nc3Cl)c(C)nn12 [Compound 1]
Completion: 77.4

---

EXPERIMENTAL_DETAILS: Study 1: single escalating oral dose pharmacokinetics, fed and fasted
Assay type: in vivo, human
ASSAY_CONTEXT: human, plasma, po, single oral doses 2-800 mg, fed state; read-out: median time to reach maximum plasma concentration (Tmax)
Description: Study 1 was the first-in-human study that investigated the safety, tolerability, and PK of single-escalating doses of Compound 1, given orally, to healthy adult subjects. […] The data from this study were used for the selection of doses for Study 2. […] PK parameters AUC0-∞ and Cmax were analyzed separately for dose proportionality for Compound 1 from 50 to 800 mg when administered in the fed state. […]
OUTCOME_MEASURE: Tmax

Prompt: Using known records, supply Tmax for `CCC(CC)c1cc(C)nc2c(-c3sc(N4CCOCC4)nc3Cl)c(C)nn12`
Completion: 4 to 6 h

---

EXPERIMENTAL_DETAILS: Study 2 Part A: multiple-dose (14 days) pharmacokinetics
Format: in vivo, human
ASSAY_CONTEXT: human, plasma, po; 50 mg daily, Day 14; half-life calculated by accumulation ratio; read-out: Effective t1/2 (converted)
OUTCOME_MEASURE: half-life (h)
Just the number in h, nothing appended.

Prompt: Note down half-life recorded for `CCC(CC)c1cc(C)nc2c(-c3sc(N4CCOCC4)nc3Cl)c(C)nn12`
Completion: 37.7

---

EXPERIMENTAL_DETAILS: Solubility in different aqueous media
Assay type: physicochemical
ASSAY_CONTEXT: thermodynamic from solid; Water, equilibrium pH 7.78, 24 hours at room temperature, n = 2
OUTCOME_MEASURE: solubility at 24 h (µg/mL)
Kindly provide the numeric value in µg/mL only, without the unit symbol.

Prompt: Give reported solubility at 24 h value for CCC(CC)c1cc(C)nc2c(-c3sc(N4CCOCC4)nc3Cl)c(C)nn12 [Compound 1]
Completion: 0.3

---

EXPERIMENTAL_DETAILS: Study 1: single escalating oral dose pharmacokinetics, fed and fasted
Assay type: in vivo, human
ASSAY_CONTEXT: human, plasma, po, 50 mg, 50 mg single oral dose, fed; geometric mean; read-out: t1/2 (converted)
OUTCOME_MEASURE: half-life (min)
Give a bare numeral; the unit min is implied.

Prompt: Give recorded half-life. `CCC(CC)c1cc(C)nc2c(-c3sc(N4CCOCC4)nc3Cl)c(C)nn12`
Completion: 1860

---

EXPERIMENTAL_DETAILS: Study 1: single escalating oral dose pharmacokinetics, fed and fasted
Assay type: in vivo, human
ASSAY_CONTEXT: human, plasma, po, 2 mg, 2 mg single oral dose, fed; geometric mean
OUTCOME_MEASURE: Cmax (ng/mL)
All answers are understood in ng/mL, so give the number only.

Prompt: Provide only the value of recorded Cmax for CCC(CC)c1cc(C)nc2c(-c3sc(N4CCOCC4)nc3Cl)c(C)nn12 [Compound 1]
Completion: 0.867

---

EXPERIMENTAL_DETAILS: Study 1: single escalating oral dose pharmacokinetics, fed and fasted
Type: in vivo, human
ASSAY_CONTEXT: human, plasma, po, 400 mg, 400 mg single oral dose, fed; geometric mean
OUTCOME_MEASURE: AUC(0-inf) (µg·h/mL)
Express it in µg·h/mL; write the number only.

Prompt: Return AUC(0-inf) for the following molecule: `CCC(CC)c1cc(C)nc2c(-c3sc(N4CCOCC4)nc3Cl)c(C)nn12`
Completion: 2.58
